# tgt: VEGF165 (recombinant human vascular endothelial growth factor, 165 aa form) (Homo sapiens, UniProt P15692-4 P15692-4:27-191)
# Sequence (P15692 other isoform, or with tags, fused parts or gaps): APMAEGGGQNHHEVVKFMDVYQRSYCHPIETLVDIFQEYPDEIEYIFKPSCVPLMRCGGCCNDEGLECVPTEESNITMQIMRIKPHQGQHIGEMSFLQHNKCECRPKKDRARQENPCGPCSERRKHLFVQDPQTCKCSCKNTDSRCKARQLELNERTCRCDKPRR
# test_details: inhibition; VEGF receptor binding
# assay_context: tags: gift from N. Ferrara, Genentech; chain copies: 2 (dimer, stated)
For each record, write down the corresponding Ki.
Output spec: scalar in nM, unitless text.

## Input # Ki lookup, item ACCCUGAUGGUAGACGCCGGGGUG (ssRNA, modified variant of NX-107 (position code lost in text)) [NX-176]
## Output 10

## Input # Ki lookup, item TTTTACCCUGAUGGUAGACGCCGGGGUGTTTTT (mixed, all 2'-OMe core; 5' and 3' phosphorothioate thymidine caps) [NX-191]
## Output 500

## Input # Ki lookup, item TTTTACCCUGAUGGUAGACGCCGGGGUGTTTTT (mixed, as NX-213 plus internal phosphorothioate between A7 and U8) [NX-215]
## Output 1

## Input # Ki lookup, item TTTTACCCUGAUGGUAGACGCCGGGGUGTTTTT (mixed, 2'-NH2 pyrimidines; 5' T*T*T*T* and 3' T*T*T*T*T phosphorothioate thymidine caps) [NX-178]
## Output 1

## Input # Ki lookup, item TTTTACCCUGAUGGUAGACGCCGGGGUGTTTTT (mixed, 2'-NH2 pyrimidines; all purines 2'-OMe except four; 5' and 3' phosphorothioate thymidine caps) [NX-213]
## Output 1

## Input # Ki lookup, item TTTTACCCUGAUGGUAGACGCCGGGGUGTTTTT (mixed, 2'-NH2/2'-OMe variant (position code lost in text); 5' and 3' phosphorothioate thymidine caps) [NX-214]
## Output 1
